Source: patent EP0023569A1

System: weiblichen und männlichen Mäusen
assay notes: Acute toxicity in mice after a single oral dose
Type: in vivo
measurement conditions: single dose of 1 000 mg/kg p.o., observation at least 7 days
reported endpoint: Tieren gestorben (von 10)
Answers are plain numbers, in von 10.

Below, 2 compounds whose answers are already recorded.
[
  {
    "compound": "O=C(O)c1ccc(CCNC(=O)c2cc(Cl)ccc2N2CCCCCC2)cc1 [O]",
    "Tieren gestorben / von 10": 0
  },
  {
    "compound": "CCOC(=O)c1ccc(CCNC(=O)c2cc(Br)ccc2N2CCCCCCC2)cc1 [V]",
    "Tieren gestorben / von 10": 0
  }
]

Could you now look at the following compound, please?
Data request: May I ask what Tieren gestorben has been recorded for CC1CN(c2ccc(Cl)cc2C(=O)NCCc2ccc(C(=O)O)cc2)CC(C)O1 (stereo not shown) [T] ?
Data returned: 0

* * *

Tested on: weiblichen und männlichen Mäusen
assay notes: Acute toxicity in mice after a single oral dose
Format: in vivo
measurement conditions: single dose p.o., suspension in 1% methylcellulose, observation at least 7 days
reported endpoint: orientierende Toxizität

The following compounds have reported results that may help.
[
  {
    "compound": "O=C(O)c1ccc(CCNC(=O)c2cc(Cl)ccc2N2CCCCCCCC2)cc1 [X]",
    "orientierende Toxizität": "> 1 000 mg/kg"
  },
  {
    "compound": "O=C(O)c1ccc(CCNC(=O)c2cc(Br)ccc2N2CCCCCCC2)cc1 [W]",
    "orientierende Toxizität": "> 1 000 mg/kg"
  },
  {
    "compound": "O=C(O)c1cc(Cl)ccc1N1CCC2(CC1)OCCO2 [KK]",
    "orientierende Toxizität": "> 2 000 mg/kg"
  },
  {
    "compound": "CC1CN(c2ccc(Cl)cc2C(=O)NCCc2ccc(C(=O)O)cc2)CC(C)O1 (stereo not shown) [T]",
    "orientierende Toxizität": "> 1 000 mg/kg"
  },
  {
    "compound": "COC(=O)c1ccc(CCNC(=O)c2cc(Cl)ccc2N2CC(C)CC(C)C2)cc1 (stereo not shown) [H]",
    "orientierende Toxizität": "> 1 000 mg/kg"
  }
]

Fill in orientierende Toxizität for each of the 5 compounds listed.
1. CN(C)c1ccc(Cl)cc1C(=O)NCCc1ccc(C(=O)O)cc1 [A]
2. O=C(O)c1ccc(CCNC(=O)c2cc(Cl)ccc2N2CCCCC2)cc1 [D]
3. CCOC(=O)c1ccc(CCNC(=O)c2cc(Br)ccc2N2CCCCCCC2)cc1 [V]
4. O=C(O)c1ccc(CCNC(=O)c2cc(Cl)ccc2N2CCCCCC2)cc1 [O]
5. CN(C)c1ccc(Br)cc1C(=O)NCCc1ccc(C(=O)O)cc1 [B]

Data returned:
> 2 000 mg/kg
> 2 000 mg/kg
> 1 000 mg/kg
> 1 000 mg/kg
> 1 000 mg/kg

* * *

Kindly state Tieren gestorben for each of the entries shown.
Tested on: weiblichen und männlichen Mäusen
assay notes: Acute toxicity in mice after a single oral dose
Format: in vivo
measurement conditions: single dose of 1 000 mg/kg p.o., observation at least 7 days
Numbers only, in von 6.

Worked examples, 2 compounds total:
[
  {
    "compound": "O=C(O)c1ccc(CCNC(=O)c2cc(Br)ccc2N2CCCCCCC2)cc1 [W]",
    "target": "weiblichen und männlichen Mäusen",
    "Tieren gestorben (von 6)": 0
  },
  {
    "compound": "COC(=O)c1ccc(CCNC(=O)c2cc(Cl)ccc2N2CC(C)CC(C)C2)cc1 (stereo not shown) [H]",
    "target": "weiblichen und männlichen Mäusen",
    "Tieren gestorben (von 6)": 0
  }
]

Now turn to the next compound.
Data request: What is its Tieren gestorben for weiblichen und männlichen Mäusen? Entry: O=C(O)c1ccc(CCNC(=O)c2cc(Cl)ccc2N2CCCCCCCC2)cc1 [X]
Data returned: 0
